target: Adenosine receptor A2a (Homo sapiens, UniProt P29274); assay: Binding affinity to human A2A adenosine receptor expressed in HEK293 cells after 1 hr by fluorescence polarization assay; type: cell-based
Sequence (P29274 whole entry, the tested form may be a part): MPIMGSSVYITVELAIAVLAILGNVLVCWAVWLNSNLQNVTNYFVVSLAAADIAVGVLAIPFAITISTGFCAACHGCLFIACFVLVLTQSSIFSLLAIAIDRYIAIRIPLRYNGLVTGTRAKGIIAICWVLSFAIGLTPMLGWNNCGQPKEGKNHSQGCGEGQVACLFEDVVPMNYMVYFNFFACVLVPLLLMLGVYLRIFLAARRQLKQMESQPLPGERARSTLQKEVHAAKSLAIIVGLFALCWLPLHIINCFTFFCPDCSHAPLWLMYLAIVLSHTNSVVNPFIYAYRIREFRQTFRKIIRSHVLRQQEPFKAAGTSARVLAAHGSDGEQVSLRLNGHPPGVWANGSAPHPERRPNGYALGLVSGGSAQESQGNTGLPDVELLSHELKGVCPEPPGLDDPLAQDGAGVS

| smiles.input | unit.string | Kd |
| --- | --- | --- |
| N=c1ccc2c(-c3ccc(C(=O)NCCNC(=O)COc4ccc(CCCn5ncc6c5nc(N)n5nc(-c7ccco7)nc65)cc4)cc3C(=O)O)c3ccc(N)c(S(=O)(=O)O)c3oc-2c1S(=O)(=O)O | nM | 16.5 |

---

target: Adenosine receptor A2a (Homo sapiens); assay: Binding affinity to C-terminal 10xHis and 1D4-tagged C-terminal-truncated human A2A adenosine receptor (1 to 316 residues) expressed in Pichia pastoris expression system at 4 nM after 1 hr by fluorescence polarization assay; details: read-out: Kd(app)
pKd: −log10 of the molar value.

| smiles.input | pKd |
| --- | --- |
| N=c1ccc2c(-c3ccc(C(=O)NCCNC(=O)COc4ccc(CCCn5ncc6c5nc(N)n5nc(-c7ccco7)nc65)cc4)cc3C(=O)O)c3ccc(N)c(S(=O)(=O)O)c3oc-2c1S(=O)(=O)O | 7.37 |
